Recorded optical density by entry
TARGET SYSTEM: human Fc (human)
PROTOCOL SUMMARY: ELISA, negative control
The reply should read as a number followed by its unit.

Reference set (2 entries):
BINDER	optical density
367_G01 (antibody, V domains shown) VH: EVQLLESGGGLVQPGGSLRLSCAASGFTFDSYGMNWVRQAPGKGLEWVASINYNSGYTGYADSVKGRFTISRDNSKNTLYLQMNSLRAEDTAVYYCARGANWHDTHLDYWGQGTLVTVSS VL: DIQMTQSPSSLSASVGDRVTITCRASQSISSYLNWYQQKPGKAPKLVIYAATSRASGVPSRFSGSGSGTDFTLTISSLQPEDFATYYCQQSYDLPLTFGGGTKVEIK	0.356 OD
367_D08 (antibody, V domains shown) VH: EVQLLESGGGLVQPGGSLRLSCAASGFTFSDYSMNWVRQAPGKGLEWVAGINYNGGYTSYADSVKGRFTISRDNSKNTLYLQMNSLRAEDTAVYYCARGANWHDTHLDYWGQGTLVTVSS VL: DIQMTQSPSSLSASVGDRVTITCRASQSILSYLNWYQQKPGKAPKLVIYAATSRHSGVPSRFSGSGSGTDFTLTISSLQPEDFATYYCQQSDDLPLTFGGGTKVEIK	0.237 OD

Turning now to a further record.
Input: Quick check: optical density of 371_A09 (antibody, V domains shown) VH: EVQLLESGGGLVQPGGSLRLSCAASGFTFSSYGMNWVRQAPGKGLEWVSGINYNGGYKSYADSVKGRFTISRDNSKNTLYLQMNSLRAEDTAVYYCARAANWHDTALDYWGQGTLVTVSS VL: DIQMTQSPSSLSASVGDRVTITCRASQSIVTYVNWYQQKPGKAPKLVIYAATSRASGVPSRFSGSGSGTDFTLTISSLQPEDFATYYCQQSYDSPLTFGGGTKVEIK ?
Output: 0.302 OD
